Listed below: Kd values for each entry.
assayed system: T1, Cynomolgus monkey latent myostatin (cynomolgus monkey, UniProt Q95J86 25-266; Q95J86 267-375)
T1 construct: Latent form = complex of two propeptides and the mature dimer; also called Cyno latent myostatin
T1 sequence 1: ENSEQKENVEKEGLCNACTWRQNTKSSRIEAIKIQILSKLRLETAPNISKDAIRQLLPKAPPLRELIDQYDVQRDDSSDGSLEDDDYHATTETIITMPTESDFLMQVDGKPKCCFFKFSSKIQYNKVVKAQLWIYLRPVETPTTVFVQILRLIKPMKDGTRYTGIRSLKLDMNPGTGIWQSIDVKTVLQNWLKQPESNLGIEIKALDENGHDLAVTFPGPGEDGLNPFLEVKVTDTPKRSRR
T1 sequence 2: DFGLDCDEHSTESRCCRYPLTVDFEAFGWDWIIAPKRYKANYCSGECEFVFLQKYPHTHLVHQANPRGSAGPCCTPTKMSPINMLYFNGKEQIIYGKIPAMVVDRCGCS
measurement protocol: SPR (BIACORE T200) 37C, pH 7.4, antibody captured by ProA/G
Provide the reading as a plain figure in nM.

| binder | value |
| --- | --- |
| MS_M103205H1047-SG1/M103202L889-SK1 (antibody, human IgG1, kappa, V domains shown, also called MS1032LO11-SG1) VH: QVTLKESGPVLVKPTETLTLTCTVSGIDLSHTDISWVRQAPGKGLEWVGIISYAGKKYYASWAKGRLTISKDTSKNQVVLTMTNMDPVDTATYYCARGVPAYSHGGDLWGQGTLVTVSS VL: DIVMTQSPATLSLSPGERATLSCTSSQSVYHANWLSWFQQKPGQPPKLLIYWASTLAYGVPSRFSGSGSGTDFTLTISSLQPEDAATYYCAGGYGGGRYAFGQGTKVEIKR | 0.502 |
| MS_M103205H1795-SG1/M103202L1060-SK1 (antibody, human IgG1, kappa, V domains shown, also called MS1032LO24-SG1) VH: QVTLKESGPVLVKPTETLTLTCTVSGIDLSHDDISWVRQAPGKGLEWVGIISYAGSTYYASWAKGRLTISKDTSKNQVVLTMTNMDPVDTATYYCARGVPAYSHGGDLWGQGTLVTVSS VL: DIVMTQSPATLSLSPGERATLSCTSSQSVFHENWLSWFQQKPGQPPKLLIYWASTLAWGVPSRFSGSGSGTDFTLTISSLQPEDAATYYCAGGYGGGRYAFGQGTKVEIKR | 0.189 |
| MS_M103205H1004-SG1/M103202L889-SK1 (antibody, human IgG1, kappa, V domains shown, also called MS1032LO07-SG1) VH: QVTLKESGPVLVKPTETLTLTCTVSGIDLSHDDISWVRQAPGKGLEWVGIISYAGSMYYASWAKGRLTISKDTSKNQVVLTMTNMDPVDTATYYCARGVPAYSHGGDKWGQGTLVTVSS VL: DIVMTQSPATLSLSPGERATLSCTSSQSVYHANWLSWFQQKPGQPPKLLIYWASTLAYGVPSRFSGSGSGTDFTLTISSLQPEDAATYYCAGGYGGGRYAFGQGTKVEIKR | 0.339 |

Ask: Form field: reported Kd of MS_M103245H1233-SG1/M103202L1045-SK1 (antibody, human IgG1, kappa, V domains shown, also called MS1032LO23-SG1) VH: QVTLKESGPVLVKPTETLTLTCKVSGIDLSHEDISWVRQAPGKGLEWVSIISYAGSTYYASWAKGRLTISKDTSKNQVVLTMTNMDPVDTATYYCARGVPAYSHGGDLWGQGTLVTVSS VL: DIVMTQSPATLSLSPGERATLSCTTSQSVYHENWLSWFQQKPGQPPKLLIYWASTLAYGVPSRFSGSGSGTDFTLTISSLQPEDAATYYCAGGYGGGRYAFGQGTKVEIKR
Result: 0.299
